Molecular target: UniProtKB P43220
Sequence (P43220 24-463, species assumed): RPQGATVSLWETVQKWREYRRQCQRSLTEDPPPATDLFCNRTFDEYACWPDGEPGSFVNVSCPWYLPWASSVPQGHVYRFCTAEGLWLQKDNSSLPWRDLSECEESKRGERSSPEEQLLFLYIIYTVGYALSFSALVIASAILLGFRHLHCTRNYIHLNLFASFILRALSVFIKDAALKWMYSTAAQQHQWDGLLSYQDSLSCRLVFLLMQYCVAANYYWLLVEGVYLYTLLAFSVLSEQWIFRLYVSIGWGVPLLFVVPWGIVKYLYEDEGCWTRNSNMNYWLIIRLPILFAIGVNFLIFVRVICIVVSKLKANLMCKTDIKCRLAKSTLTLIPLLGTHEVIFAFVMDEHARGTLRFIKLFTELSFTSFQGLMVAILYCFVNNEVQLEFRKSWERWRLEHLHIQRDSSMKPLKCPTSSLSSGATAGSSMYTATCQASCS
Assay: GLP1R cAMP assay (HTRF cAMP detection, agonist activity)
Type: cell-based
Design: host or cells: Flp-In-293
Conditions: Flp-In-293-GLP1R cells, 30 min at 37° C., read-out: EC50 (nM) Assay 1
Measured attribute: EC50

O=C(O)c1ccc2nc(CN3CC4CCC(C3)N4c3cccc(OCc4ccccc4F)n3)n(C[C@@H]3CCO3)c2c1 [Compound 2-36]
> 4 nM
N#Cc1ccc(COc2cccc(N3C4CCC3CN(Cc3nc5ccc(C(=O)O)cc5n3Cc3ncco3)C4)n2)c(F)c1 [Compound 2-31]
1.5 nM
O=C(O)c1ccc2nc(CN3C4CCC3CN(c3cccc(OCc5ccncc5F)n3)C4)n(C[C@@H]3CCO3)c2c1 [Compound 2-13]
> 4 nM
COc1cc(C#N)ccc1COc1cccc(C23CCN(Cc4nc5ccc(C(=O)O)cc5n4C[C@@H]4CCO4)CC2C3)n1 (stereo partly shown) [Compound 1-6]
0.003 nM
N#Cc1ccc(COc2ccnc(N3C4CCC3CN(Cc3nc5ccc(C(=O)O)cc5n3C[C@@H]3CCO3)C4)c2)c(F)c1 [Compound 2-34]
> 4 nM

Item N#Cc1ccc(COc2cccc(N3CC4CCC(C3)N4Cc3nc4ccc(C(=O)O)cc4n3C[C@@H]3CCO3)n2)cc1 [Compound 2-4] has what recorded EC50? > 4 nM

Next record, please: N#Cc1ccc(COc2cccc(N3CC4CN(Cc5nc6ccc(C(=O)O)cc6n5Cc5cocn5)CC4C3)n2)c(F)c1 (stereo not shown) [Compound 2-25] 1.7 nM
